- measured on: thioredoxin reductase (Rattus norvegicus)
- Sequence (O89049 1-499): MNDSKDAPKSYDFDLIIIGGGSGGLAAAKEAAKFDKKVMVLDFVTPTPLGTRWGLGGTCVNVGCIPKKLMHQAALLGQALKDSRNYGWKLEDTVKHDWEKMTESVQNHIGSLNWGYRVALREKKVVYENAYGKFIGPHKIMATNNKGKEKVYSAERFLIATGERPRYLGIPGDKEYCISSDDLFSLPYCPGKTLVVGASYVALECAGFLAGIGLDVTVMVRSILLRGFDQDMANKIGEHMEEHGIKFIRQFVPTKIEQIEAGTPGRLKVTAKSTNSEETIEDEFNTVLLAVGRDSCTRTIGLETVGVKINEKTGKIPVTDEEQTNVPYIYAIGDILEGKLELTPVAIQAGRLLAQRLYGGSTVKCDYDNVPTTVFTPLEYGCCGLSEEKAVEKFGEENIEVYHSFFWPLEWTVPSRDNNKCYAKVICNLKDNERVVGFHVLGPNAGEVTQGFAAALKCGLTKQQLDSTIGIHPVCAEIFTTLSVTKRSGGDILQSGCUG
observed property: pIC50
// scale note: pIC50 = -log10(conc_M); give the bare number

Input CN1C(=O)[C@@]23C[C@]4([C@]56C[C@@]78SS[C@@](CO)(C(=O)N7[C@H]5Nc5ccccc56)N(C)C8=O)c5ccccc5N[C@@H]4N2C(=O)[C@]1(CO)SS3 . Output pIC50: 5.40

---

- measured on: thioredoxin (Escherichia coli)
- Sequence (P0AA25 whole entry): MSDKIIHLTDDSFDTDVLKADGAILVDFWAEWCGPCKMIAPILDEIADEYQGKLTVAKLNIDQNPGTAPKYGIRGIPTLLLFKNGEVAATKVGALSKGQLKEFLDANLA
observed property: IC50

Entry CN1C(=O)[C@@]23C[C@]4([C@]56C[C@@]78SS[C@@](CO)(C(=O)N7[C@H]5Nc5ccccc56)N(C)C8=O)c5ccccc5N[C@@H]4N2C(=O)[C@]1(CO)SS3 : IC50 on thioredoxin (Escherichia coli) = ~90 µM

---

- measured on: TrxR1 (Rattus norvegicus)
observed property: IC50

Noted IC50 for CN1C(=O)[C@@]23C[C@]4([C@]56C[C@@]78SS[C@@](CO)(C(=O)N7[C@H]5Nc5ccccc56)N(C)C8=O)c5ccccc5N[C@@H]4N2C(=O)[C@]1(CO)SS3 , tested on TrxR1 (Rattus norvegicus): ~4 µM
